experiment: qHTS assay for identifying genotoxic compounds that show differential cytotoxicity against isogenic chicken DT40 cell lines with known DNA damage response pathways - wild type cell line (AID 743012); settings: DT40 wild type chicken cells viability, CellTiter-Glo, 40 h; series mostly up to 68.4 µM; also: nearly all actives have a fitted effect of over 60% in size
Records with an inconclusive call do not appear. Calls of active or inactive are those of the source. Calls follow the shape of the dose curve; as a rule, active = well fitted cell-killing curve with a large enough effect in the repeat runs; inconclusive = weak or mixed curves, or effect the other way; inactive = no such curve, though single readings can be large or run the other way. Starred links: 1 amine or outer side, 2 acyl side, 3 side chain; linkers in the order of their positions; H or OH if unused. Positions of bridges follow the written chain, without caps; N, C: chain ends. Non-standard residues stand in square brackets, D forms with d. Residues, ends and D or L forms follow the SMILES beside them. *: point of attachment. X5 = NC1=N[C@@H]([C@H](N[*:1])C(=O)[*:2])C[C@H](O)N1; ΔAla(Z-3-ureido) = NC(=O)N/C=C(\N)C(=O)O; β3hOrn = NCCC[C@H](N)CC(=O)*; Dap = NC[C@H](N)C(=O)O
Hello, when you answer, please use one of the following outcomes: active, inactive

Examples with answers:
[
  {
    "molecule": "COc1ccc(C2NC(=S)N3C(c4ccc(OC)c(OC)c4)NC(=S)N23)cc1OC (stereo not drawn)",
    "group": "active"
  },
  {
    "molecule": "N#CC(c1ccc(Cl)cc1)c1c(Cl)cc(-n2ncc(=O)[nH]c2=O)cc1Cl (stereo not drawn)",
    "group": "active"
  },
  {
    "molecule": "CC[N+](C)(C)Cc1ccccc1Br",
    "group": "inactive"
  },
  {
    "molecule": "CC1(C)S[C@@H]2[C@H](NC(=O)Cc3ccccc3)C(=O)N2[C@H]1C(=O)O",
    "group": "inactive"
  },
  {
    "molecule": "CC1(C)S[C@@H]2[C@H](NC(=O)[C@H](N)c3ccccc3)C(=O)N2[C@H]1C(=O)OCOC(=O)[C@@H]1N2C(=O)C[C@H]2S(=O)(=O)C1(C)C",
    "group": "inactive"
  },
  {
    "molecule": "CCOC(=O)C1=C[C@@H](OC(CC)CC)[C@H](NC(C)=O)[C@@H](N)C1",
    "group": "inactive"
  }
]

Input line: Which result was noted for this molecule in the test: CCCCCCCCCCCCCCCCCCCCCC(=O)Nc1ccn([C@@H]2O[C@H](CO)[C@@H](O)[C@@H]2O)c(=O)n1
Output line: active

Input line: Which outcome was entered for the molecule CCN(CC)CCOc1ccc(-c2nc3cc(Cl)ccc3s2)cc1 in this test?
Output line: active

Input line: What call does the record list for C[C@H](CSC(=O)c1ccccc1)C(=O)N1C[C@@H](Sc2ccccc2)C[C@H]1C(=O)O ?
Output line: inactive

Input line: Which outcome did this test record for the molecule O=C(NCCNCC(O)COc1ccc(O)cc1)N1CCOCC1 (stereo not drawn) ?
Output line: inactive

Input line: Which outcome was assigned to CCOC(=O)[C@@H](N)CS in this test?
Output line: inactive

Input line: Record lookup: outcome of this test for CC1(C)N=C(N)N=C(N)N1c1ccc(Cl)cc1 ?
Output line: active

Input line: Short answer needed: outcome of this test for NCCC[C@H](N)CC(=O)N[C@H]1CNC(=O)[C@H]([C@H]2C[C@H](O)NC(N)=N2)NC(=O)/C(=C/NC(N)=O)NC(=O)[C@H](CO)NC(=O)[C@H](CO)NC1=O (β3hOrn-[Dap]SS[ΔAla(Z-3-ureido)][X5]; lactam 1-C) ?
Output line: inactive

Input line: # fetch the recorded call for O=C(OC[C@H]1O[C@](O)(COC(=O)c2cccnc2)[C@@H](OC(=O)c2cccnc2)[C@@H]1OC(=O)c1cccnc1)c1cccnc1 here
Output line: inactive

Input line: Please indicate how the test categorized Cc1cc(-n2c(=O)[nH]c(=O)n(C)c2=O)ccc1Oc1ccc(S(=O)(=O)C(F)(F)F)cc1 .
Output line: active

Input line: Please indicate how the test categorized CCC(=O)O[C@]1(C(=O)CCl)[C@@H](C)C[C@H]2[C@@H]3C[C@H](F)C4=CC(=O)C=C[C@]4(C)[C@@]3(F)[C@@H](O)C[C@@]21C .
Output line: active

Input line: How was CCN(CC)CCOc1ccccc1OC classified in this test?
Output line: inactive

Input line: Please share the test call associated with CCCOc1cc(N)ccc1C(=O)OCCN(CC)CC .
Output line: inactive

Source listed as PubChem BioAssay (Tox21).
